Cited source: ChEMBL document CHEMBL4765392

- Test system: envelope glycoprotein of Marburgvirus
- protocol notes: Selectivity index, ratio of CC50 for human A549 cells to IC50 for inhibition of envelope glycoprotein in HIV pseudotyped Marburgvirus infected in human A549 cells assessed as reduction in virus entry
- Assay type: toxicity, cell-based
- condition description: read-out: Ratio CC50/IC50
Assign labels as follows, please: 1 for selectivity ratio below 30; -1 for selectivity ratio equal to or exceeding 30.

Would you please look over these solved cases?
In [3]: df
Out[3]:
                                   molecule                      system_under_test  assigned_label
0  Cc1c(Cc2ccccc2)c(=O)oc2cc(OCC(O)CN3CCC(C(N)=O)CC3)ccc12 (stereo not given)  envelope glycoprotein of Marburgvirus               1
1  Cc1c(Cc2ccc(-c3ccc(C(F)(F)F)cc3)cc2)c(=O)oc2cc(OCC(O)CN3CCC(C(N)=O)CC3)ccc12 (stereo not given)  envelope glycoprotein of Marburgvirus              -1
2  Cc1c(Cc2ccccc2)c(=O)oc2cc(OCC(O)CNCCc3ccccn3)ccc12 (stereo not given)  envelope glycoprotein of Marburgvirus               1

Inquiry: Please let me know if Cc1c(Cc2ccccc2)c(=O)oc2cc(OCCCNc3nccs3)ccc12 shows selectivity ratio below 30.
Reply text: 1

Inquiry: Just wondering, is selectivity ratio of Cc1c(Cc2ccccc2)c(=O)oc2cc(OCC(O)CNCC3CC3)ccc12 (stereo not given) below 30?
Reply text: -1

----------
- protocol notes: Cytotoxicity against human A549 cells assessed as reduction in cell viability by Celltiter-Glo assay
- Assay type: cell-based
With a cut-off of 40 µM, any CC50 strictly below it is called satisfied; any CC50 meeting it or above is called not satisfied.

                                   compound  assigned_label
0  C#CCNCC(O)COc1ccc2c(C)c(Cc3ccccc3)c(=O)oc2c1 (stereo unspecified)   not satisfied
1  Cc1c(Cc2ccc(F)cc2Cl)c(=O)oc2cc(OCC(O)CN3CCC(C(N)=O)CC3)ccc12 (stereo unspecified)   not satisfied
2  Cc1c(Cc2ccc(-c3ccc(Cl)cc3)cc2)c(=O)oc2cc(OCC(O)CN3CCC(C(N)=O)CC3)ccc12 (stereo unspecified)       satisfied

Inquiry: Answer whether the compound Cc1ccc2nc(NCC(O)COc3ccc4c(C)c(Cc5ccccc5)c(=O)oc4c3)sc2c1 (stereo unspecified) has CC50 strictly less than 40 µM
Reply text: not satisfied

Inquiry: Decide: CC50 of Cc1c(Cc2cccc(F)c2)c(=O)oc2cc(OCC(O)CN3CCC(C(N)=O)CC3)ccc12 (stereo unspecified) strictly below 40 µM?
Reply text: not satisfied

Inquiry: Hello, I'm reviewing records and need to know if CC50 of Cc1cc(=O)oc2cc(OCC(O)CN3CCC(C(N)=O)CC3)ccc12 (stereo unspecified) is below 40 µM. Could you check?
Reply text: not satisfied

----------
- Test system: envelope glycoprotein of Zaire Ebolavirus
- protocol notes: Selectivity index, ratio of CC50 for human A549 cells to IC50 for inhibition of envelope glycoprotein in HIV pseudotyped Zaire Ebolavirus infected in human A549 cells assessed as reduction in virus entry
- Type: toxicity, cell-based
- condition description: read-out: Ratio CC50/IC50
Please go through the items and note down their selectivity ratio.
Give bare numbers.

Illustrative cases are given below, each with its answer.
                                   compound  assay_result
0  Cc1c(Cc2ccccc2)c(=O)oc2cc(OCC(CN3CCC(C(N)=O)CC3)Oc3ccc(F)cc3)ccc12 (centres undefined)           6.4
1  COC(CNCCc1ccncc1)COc1ccc2c(C)c(Cc3ccccc3)c(=O)oc2c1 (centres undefined)           5.9
2  NC(=O)C1CCN(CC(O)COc2ccc3c(-c4ccccc4)c(Cc4ccccc4)c(=O)oc3c2)CC1 (centres undefined)           8.6

For each of the compounds below, note its selectivity ratio.
1. Cc1c(Cc2ccc(OC(F)(F)F)cc2)c(=O)oc2cc(OCC(O)CN3CCC(C(N)=O)CC3)ccc12 (centres undefined)
2. COc1ccc(OC(COc2ccc3c(C)c(Cc4ccccc4)c(=O)oc3c2)CN2CCC(C(N)=O)CC2)cc1 (centres undefined)
3. Cc1c(Cc2ccccc2)c(=O)oc2cc(OCC(O)CNc3nccs3)ccc12 (centres undefined)

Reply text:
1. 136
2. 9.1
3. 44.3

----------
- System: envelope glycoprotein of Zaire Ebolavirus
- protocol notes: Selectivity index, ratio of CC50 for human A549 cells to IC50 for inhibition of envelope glycoprotein in HIV pseudotyped Zaire Ebolavirus infected in human A549 cells assessed as reduction in virus entry
- Format: toxicity, cell-based
- condition description: read-out: Ratio CC50/IC50
quantity name: selectivity ratio
One number for each entry.

Completed entries (count: 5):
>>> print(df.to_string())
                                   molecule      quantity_name  assay_result
0  Cc1c(Cc2ccc(C(F)(F)F)cc2)c(=O)oc2cc(OCC(O)CN3CCC(C(N)=O)CC3)ccc12 (centres undefined)  selectivity ratio          78.8
1  Cc1c(Cc2ccccc2)c(=O)oc2cc(OCC(O)CNCCCO)ccc12 (centres undefined)  selectivity ratio             6
2  Cc1c(Cc2ccc(-c3ccccc3)cc2)c(=O)oc2cc(OCC(O)CNc3nccs3)ccc12 (centres undefined)  selectivity ratio          14.1
3  Cc1c(Cc2ccccc2)c(=O)oc2cc(OCC(O)CNCCc3cccnc3)ccc12 (centres undefined)  selectivity ratio          20.5
4  Cc1c(Cc2ccc(-c3ccc(F)cc3)cc2)c(=O)oc2cc(OCC(O)CN3CCC(C(N)=O)CC3)ccc12 (centres undefined)  selectivity ratio          13.1

Can you give me selectivity ratio for all of these, one by one?
1. Cc1c(Cc2ccc(-c3ccc(C#N)c(F)c3)cc2)c(=O)oc2cc(OCC(O)CN3CCC(C(N)=O)CC3)ccc12 (centres undefined)
2. Cc1c(Cc2cccc(F)c2)c(=O)oc2cc(OCC(O)CN3CCC(C(N)=O)CC3)ccc12 (centres undefined)

Reply text:
8.2
34

----------
- protocol notes: Cytotoxicity against human A549 cells assessed as reduction in cell viability by Celltiter-Glo assay
- Assay type: cell-based
Hi! Could you tag entries with CC50 below 40 µM as Condition met, and those at or above as Condition not met? Much appreciated.

In [3]: df
Out[3]:
                                   molecule     assigned_label
0  Cc1c(Cc2ccc(OC(F)(F)F)cc2)c(=O)oc2cc(OCC(O)CNc3nccs3)ccc12 (stereo not given)  Condition not met
1  Cc1c(Cc2ccc(-c3ccc(C=O)c(F)c3)cc2)c(=O)oc2cc(OCC(O)CN3CCC(C(N)=O)CC3)ccc12 (stereo not given)  Condition not met
2  Cc1c(Cc2ccc(Br)cc2)c(=O)oc2cc(OCC(O)CN3CCC(C(N)=O)CC3)ccc12 (stereo not given)  Condition not met
3  COC(=O)c1ccc(Cc2c(C)c3ccc(OCC(O)CN4CCC(C(N)=O)CC4)cc3oc2=O)cc1 (stereo not given)  Condition not met
4  Cc1c(Cc2ccc(F)cc2)c(=O)oc2cc(OCC(O)CN3CCC(C(N)=O)CC3)ccc12 (stereo not given)  Condition not met

Inquiry: Lab log: compare recorded CC50 with 40 µM; is it strictly lower for Cc1c(Cc2ccccc2)c(=O)oc2cc(OCC(O)CNc3nccs3)ccc12 (stereo not given) ?
Reply text: Condition not met

Inquiry: Consider Cc1c(Cc2ccccc2)c(=O)oc2cc(OCC(O)CNn3ccnn3)ccc12 (stereo not given) . Does its CC50 lie strictly below 40 µM?
Reply text: Condition not met

Inquiry: Problem: For the molecule Cc1c(Cc2ccc(-c3ccccc3C#N)cc2)c(=O)oc2cc(OCC(O)CN3CCC(C(N)=O)CC3)ccc12 (stereo not given) , is CC50 under 40 µM?
Reply text: Condition met

Inquiry: is_below(CC50, 40 µM) for Cc1c(Cc2ccc(OC(F)(F)F)cc2)c(=O)oc2cc(OCC(O)CNCCc3ccncc3)ccc12 (stereo not given) ?
Reply text: Condition met

Inquiry: A record lists Cc1c(Cc2ccccc2)c(=O)oc2cc(OCC(O)CN3CCC(C(N)=O)CC3)ccc12 (stereo not given) . Is its CC50 below 40 µM?
Reply text: Condition not met

Inquiry: Take the molecule Cc1c(Cc2ccccc2)c(=O)oc2cc(OCC(CN3CCC(C(N)=O)CC3)Oc3ccccc3F)ccc12 (stereo not given) and say whether its CC50 is less than 40 µM.
Reply text: Condition not met

Inquiry: Does the reported CC50 of Cc1c(Cc2ccc(-c3ccccc3)cc2)c(=O)oc2cc(OCC(O)CNc3nccs3)ccc12 (stereo not given) stay below 40 µM?
Reply text: Condition met

----------
Provide the recorded selectivity ratio for the entries that follow.
- Tested on: envelope glycoprotein of Zaire Ebolavirus
- protocol notes: Selectivity index, ratio of CC50 for human A549 cells to IC50 for inhibition of envelope glycoprotein in HIV pseudotyped Zaire Ebolavirus infected in human A549 cells assessed as reduction in virus entry
- Type: toxicity, cell-based
- condition description: read-out: Ratio CC50/IC50

>>> print(df.to_string())
                                   molecule      quantity_name  assay_result
0  Cc1cc(=O)oc2cc(OCC(O)CN3CCC(C(N)=O)CC3)ccc12 (stereo not drawn)  selectivity ratio        > 10.8
1  Cc1cc(F)ccc1Cc1c(C)c2ccc(OCC(O)CN3CCC(C(N)=O)CC3)cc2oc1=O (stereo not drawn)  selectivity ratio        > 81.1

# input for lookup
Inquiry: Item Cc1c(Cc2ccccc2)c(=O)oc2cc(OCC(O)CN3CCC(C(N)=O)CC3)ccc12 (stereo not drawn) with envelope glycoprotein of Zaire Ebolavirus - selectivity ratio?
Reply text: > 29.4
